Each recorded value in this set is attributed to ChEMBL document CHEMBL3872214.

Let's look at some compounds and their measured MIC.
# System: Staphylococcus aureus
# METHOD: Antibacterial activity against methicillin-resistant Staphylococcus aureus 198-3 after 18 to 20 hrs by two-fold microbroth dilution method
# Type: functional
Reply numerically in µM, unit not repeated.

Look over these answered cases.
CC(=O)OC[C@H]1O[C@@H](NC(=S)N/N=C2/C(=O)Nc3c2cc(Br)cc3[N+](=O)[O-])[C@H](OC(C)=O)[C@@H](OC(C)=O)[C@@H]1OC(C)=O | 6.25
CC(=O)OC[C@H]1O[C@@H](NC(=S)N/N=C2/C(=O)Nc3ccc([N+](=O)[O-])cc32)[C@H](OC(C)=O)[C@@H](OC(C)=O)[C@@H]1OC(C)=O | 200
CC(=O)OC[C@H]1O[C@@H](NC(=S)N/N=C2/C(=O)N(Cc3ccccc3)c3ccccc32)[C@H](OC(C)=O)[C@@H](OC(C)=O)[C@@H]1OC(C)=O | 200
C=CCN1C(=O)/C(=N/NC(=S)N[C@@H]2O[C@H](COC(C)=O)[C@@H](OC(C)=O)[C@H](OC(C)=O)[C@H]2OC(C)=O)c2ccccc21 | 200

Sample CCN1C(=O)/C(=N/NC(=S)N[C@@H]2O[C@H](COC(C)=O)[C@@H](OC(C)=O)[C@H](OC(C)=O)[C@H]2OC(C)=O)c2ccccc21 ; MIC observed: 100

MIC in this record for CC(=O)OC[C@H]1O[C@@H](NC(=S)N/N=C2/C(=O)Nc3c2cc(Cl)cc3[N+](=O)[O-])[C@H](OC(C)=O)[C@@H](OC(C)=O)[C@@H]1OC(C)=O : 6.25

For CC(=O)OC[C@H]1O[C@@H](NC(=S)N/N=C2/C(=O)Nc3ccc(C(C)C)cc32)[C@H](OC(C)=O)[C@@H](OC(C)=O)[C@@H]1OC(C)=O the compound record lists MIC as 12.5
